Test system: T-47D breast
Assay: NCI-60 one-dose screen, 48 h (100 = growth as untreated, 0 = no growth, -100 = all killed)
Conditions: 10 µM unless noted
Protocol: Growth inhibition of the T-47D human tumor cell line is measured as a screen for anti-cancer activity. Cells are grown in 96 well plates and exposed to the test compound for 48 hours. Compounds are tested at a single concentration, which is 10^-5 M for most compounds. The reported endpoint is percent growth (GI% or GIPRCNT), where numbers from 0 - 100% represent growth inhibition, and numbers from -100% - 0 represent cell death. For example, a value of 40 represents 60% growth inhibition. […]
About 83,000 compounds went through this panel and 20% of them were active in at least one assay; those are over-represented in the sample as a whole.
growth overview
Quick note: give the figure in %, leave out the unit.

Known growth results, listed for orientation:
>  <molecule>
O=C(c1ccccc1)C(CCc1ccccn1)CCc1ccccn1

>  <subject-of-test>
T-47D breast

>  <assay-endpoint>
growth

>  <measured>
92.3

$$$$
>  <molecule>
Cc1cc(-c2ccccc2)on1

>  <subject-of-test>
T-47D breast

>  <assay-endpoint>
growth

>  <measured>
96

$$$$
>  <molecule>
CCN1C(=O)N(CC)C2C1N=C(SC)N2/N=C/C=C/c1ccccc1OC (stereo unspecified)

>  <subject-of-test>
T-47D breast

>  <assay-endpoint>
growth

>  <measured>
54.2

$$$$

# input For the molecule `COC1(OC)C2(Cl)CCC1(Cl)C(Cl)=C2Cl` , what growth is on record?
# output 98.3
